# test_system: Amine oxidase [flavin-containing] A (Homo sapiens, UniProt P21397)
# Sequence (P21397 whole entry): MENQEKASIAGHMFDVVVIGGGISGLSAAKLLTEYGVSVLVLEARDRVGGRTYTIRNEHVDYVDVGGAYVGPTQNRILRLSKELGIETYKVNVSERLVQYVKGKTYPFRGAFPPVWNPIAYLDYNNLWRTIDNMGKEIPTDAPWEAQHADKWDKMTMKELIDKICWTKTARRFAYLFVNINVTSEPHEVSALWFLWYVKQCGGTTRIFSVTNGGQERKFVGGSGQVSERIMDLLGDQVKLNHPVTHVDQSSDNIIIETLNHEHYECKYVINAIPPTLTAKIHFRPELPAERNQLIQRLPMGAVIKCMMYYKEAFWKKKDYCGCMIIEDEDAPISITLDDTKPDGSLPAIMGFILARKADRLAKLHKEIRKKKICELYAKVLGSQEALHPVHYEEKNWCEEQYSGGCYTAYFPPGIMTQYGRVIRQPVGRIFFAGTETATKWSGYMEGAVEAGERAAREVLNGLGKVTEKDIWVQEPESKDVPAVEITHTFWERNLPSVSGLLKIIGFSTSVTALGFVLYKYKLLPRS
# experiment_summary: Inhibition of human recombinant MAO-A using kynuramine as substrate incubated for 20 mins by fluorescence spectrophotometric analysis
# IC50 listing for each entry below

smiles	IC50
COn1c(-c2ccc(C)cc2)c(Br)c2cc(C#N)c(C#N)cc21	> 100 µM
Cc1ccc(-c2cc3cc(C(=O)O)c(C(=O)O)cc3n2O)cc1	> 100 µM
CC(=O)On1c(-c2cccs2)cc2cc(C#N)c(C#N)cc21	2.08 µM
COn1c(-c2cccs2)cc2cc3c(cc21)C(=O)NC3=O	6.7 µM
COC(=O)c1cc2cc(-c3ccc(OC)cc3)n(OC)c2cc1C(=O)OC	19 µM
COc1ccc(-c2c(CO)c3cc(C#N)c(C#N)cc3n2OC)cc1	1.13 µM
COn1c(-c2ccccc2)c(C=O)c2cc(C#N)c(C#N)cc21	0.522 µM
O=C(O)c1cc2cc(-c3cccs3)n(O)c2cc1C(=O)O	> 100 µM
O=C(Cc1cc2c(cc1[N+](=O)[O-])C(=O)N(Cc1ccccc1)C2=O)c1cccs1	> 100 µM
Cc1ccc(C(=O)Cc2cc(C(=O)O)c(C(=O)O)cc2[N+](=O)[O-])cc1	> 100 µM
N#Cc1cc2cc(-c3ccccc3)n(O)c2cc1C#N	6.92 µM
